# target desc: Grb2 SH2 (UniProt P62993)
# method notes: SH2 binding enrichment of the phosphorylated peptide, bacterial display (enrichment ratio); higher = better substrate or ligand; peptides without Tyr show the background;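 further: peptide library displayed on the E. coli surface as eCPX fusions, selected cells deep-sequenced, score is each peptide's frequency after selection divided by its frequency in the input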
quantity: SH2 binding enrichment

>>> recorded_measurement("ANNEYYFRVCA")
0.646
>>> recorded_measurement("LGRTRYQHVTG [MIPEP_Y510]")
0.881
>>> recorded_measurement("ESDGAYIQRMQ [CCDC137_Y125_H127Q]")
0.731
>>> recorded_measurement("GIKAAYEAELG [LMNA_Y81]")
0.875
>>> recorded_measurement("DLAHKYHGGGG [HBB_Y146_A141D]")
0.722
>>> recorded_measurement("AIGYEYSEINI [SIGLEC12_Y588]")
0.656
>>> recorded_measurement("FSKTQYNQVPS [CXADR_Y318_YF]")
0.962
>>> recorded_measurement("PMDTFYDSTRG [DYNC2H1_Y2231_YF]")
1.04
>>> recorded_measurement("YDCGMYSHLQG [LGR4_Y848]")
1.03
>>> recorded_measurement("ISSLDYISKSK [VAV3_Y294_T298S]")
0.781

(P) LSVEIHDRREF [ITGB7_Y753_Y753H_YF]
(Q) KNDSKYVVKGN [KIT_Y823_N822K]
Task: Sort P and Q by SH2 binding enrichment descending and give the first. Write down the label attached to your selection.
Output: Q
